# Test system: U2OS
# Experiment description: Multiplex assay against U2OS
# Type: toxicity, cell-based
# Study conditions: human, 24 h, 1 µM, compound concentration 1 uM, replicate 1
Property label: Population Mitochondria Different-Phenotype (%)

Test item Cc1nc(-c2ccc(-c3ccc(C(=O)N4CCc5cc6c(cc54)C4(CCN(C)CC4)CO6)cc3)c(C)c2)no1 [SB-224289] ; U2OS; reported Population Mitochondria Different-Phenotype (%) was 40%

* * *

# System: Fibroblast
# Experiment description: Multiplex assay against human fibroblast
# Format: toxicity, cell-based
# Study conditions: 12 h, 1 µM, compound concentration 1 uM, replicate 1
Property label: Population Mitochondria Different-Phenotype (%)
Lab note: write values as number then unit, every time.

Known Population Mitochondria Different-Phenotype (%) results, listed for orientation:
>  <Compound>
C=CC(=O)Nc1cccc(C(=O)Nc2ccc(Nc3cc(-c4[nH]c(SC)nc4C)ccn3)cc2)c1

>  <Target under test>
Fibroblast

>  <Result value>
8%

$$$$
>  <Compound>
COc1ncc(-c2ccc3nccc(-c4ccnnc4)c3c2)cc1NS(=O)(=O)c1ccc(F)cc1F

>  <Target under test>
Fibroblast

>  <Result value>
2%

$$$$

Test item COc1cc(-n2cnc3cc(-c4ccc(Cl)cc4)sc3c2=O)ccc1OCCN1CCCC1 ; Fibroblast; reported Population Mitochondria Different-Phenotype (%) was 13%

Test item CN1CCN(c2ccc(OC(F)(F)F)c(Nc3ncc4c(n3)-c3c(c(C(N)=O)nn3CCO)CC4)c2)CC1 ; Fibroblast; reported Population Mitochondria Different-Phenotype (%) was 10%

Test item CN1CCC[C@@H]1CCO[C@](C)(c1ccccc1)c1ccc(Cl)cc1.O=C(O)/C=C/C(=O)O [CLEMASTINE FUMARATE] ; Fibroblast; reported Population Mitochondria Different-Phenotype (%) was 10%

Test item Cc1cc(C)cc(-c2cnc3cc(Cl)c(-c4cccc(O)c4)cc3c2OCCCN)c1 ; Fibroblast; reported Population Mitochondria Different-Phenotype (%) was 30%

Test item C=CC(=O)Nc1ccc2ncnc(Nc3ccc(OCc4cccc(F)c4)c(Cl)c3)c2c1.Cc1ccc(S(=O)(=O)O)cc1 ; Fibroblast; reported Population Mitochondria Different-Phenotype (%) was 9%

Test item O=C1NCN(c2ccccc2)C12CCN(CCCOc1ccc(F)cc1)CC2 [SPIRAMIDE] ; Fibroblast; reported Population Mitochondria Different-Phenotype (%) was 11%
